Where a name gives a salt, the structure may show the parent alone.
Reported values of melting point for individual entries

>  <compound>
COc1cccc2c1nc(C(F)F)n2-c1nc(-c2ccc(NS(=O)(=O)CCN(C)C)cc2)nc(N2CCOCC2)n1 (as salt: methanesulfonate)

>  <melting point>
218 to 220 °C

$$$$
>  <compound>
COc1cccc2c1nc(C(F)F)n2-c1nc(N2CCOCC2)nc(N2CCN(S(=O)(=O)C(F)(F)F)CC2)n1

>  <melting point>
272 to 273 °C

$$$$
>  <compound>
COc1cccc2c1nc(C(F)F)n2-c1nc(N2CCOCC2)nc(N2CCCC(N(C)S(C)(=O)=O)C2)n1 (stereo in doubt) [Example 45]

>  <melting point>
224 to 226 °C

$$$$
>  <compound>
COc1cccc2c1nc(C(F)F)n2-c1nc(Nc2ccc(N(C)S(C)(=O)=O)nc2)nc(N2CCOCC2)n1

>  <melting point>
250 to 253 °C

$$$$
>  <compound>
COc1cccc2c1nc(C(F)F)n2-c1nc(N2CCOCC2)nc(N2CCCC(NS(C)(=O)=O)C2)n1 (stereo in doubt) [Example 44]

>  <melting point>
220 to 221 °C

$$$$
>  <compound>
COc1cccc2c1nc(C(F)F)n2-c1nc(N2CCOCC2)c2cnn(C3CCN(S(=O)(=O)CCN(C)C)CC3)c2n1 (as salt: methanesulfonate)

>  <melting point>
191 to 193 °C

$$$$
>  <compound>
COc1cccc2c1nc(C(F)F)n2-c1nc(Nc2ccc(NS(C)(=O)=O)nc2)nc(N2CCOCC2)n1

>  <melting point>
302 to 306 °C

$$$$
>  <compound>
CN(C)CCS(=O)(=O)N1CCN(c2nc(N3CCOCC3)nc(-n3c(C(F)F)nc4ccccc43)n2)CC1 (as salt: hydrochloride)

>  <melting point>
244 to 246 °C

$$$$
>  <compound>
COc1cccc2c1nc(C(F)F)n2-c1nc(N2CCOCC2)nc(N2CCCC(NS(=O)(=O)CCl)C2)n1 (stereo in doubt)

>  <melting point>
166 to 168 °C

$$$$
>  <compound>
COc1cccc2c1nc(C(F)F)n2-c1nc(N2CCOCC2)nc(N2CCC(NS(C)(=O)=O)C2)n1 (stereo in doubt) [Example 36]

>  <melting point>
290 to 292 °C

$$$$
>  <compound>
COc1cccc2c1nc(C(F)F)n2-c1nc(N2CCOCC2)nc(N2CCC(NS(=O)(=O)C(F)(F)F)CC2)n1

>  <melting point>
282 to 285 °C

$$$$
>  <compound>
COc1cc(N)cc2c1nc(C(F)F)n2-c1nc(N2CCOCC2)nc(N2CCN(S(=O)(=O)CCN(C)C)CC2)n1 (as salt: methanesulfonate)

>  <melting point>
238 °C (dec.)

$$$$
>  <compound>
COc1cccc2c1nc(C(F)F)n2-c1nc(N2CCOCC2)nc(N2CCC(N(C)S(C)(=O)=O)C2)n1 (stereo in doubt) [Example 39]

>  <melting point>
244 to 247 °C

$$$$
